// data source = patent US5462726A

test system: jugular vein; assay: Force development in isolated jugular vein rings; assay type: cell-based, rabbit (male New Zealand white); conditions: Oryctolagus cuniculus, jugular vein; molar conversion; read-out: EC50 for ricinoleic acid-induced force
measurement.kind: EC50 (nM)
Number in nM, nothing else.

-- ask Any idea what EC50 was measured for `CCCCCC[C@@H](O)C/C=C\CCCCCCCC(=O)O` ?
-- reply 800
